Values were extracted from the supplement of paper PMC13386468.

- Target or system: UniProt Q8IKQ9
- Run description: apparent dissociation constant (Kd app) from Kinobeads competition
- Condition parameters: assay detail: Kinobeads competition in P. falciparum blood-stage lysate
Test readout: pKd
Note: pKd values are expressed as the negative base-10 logarithm of concentration in M.

Entry O=c1[nH]c2ccc(Cl)cc2c(NC2CN3CCC2CC3)c1-c1nc2ccccc2[nH]1 (stereo unspecified) [CHIR-124] — recorded pKd = 4.82

###

- Target or system: UniProt Q8II00
- Run description: IC50 for competition of protein binding to Kinobeads
- Condition parameters: assay detail: Kinobeads competition in P. falciparum blood-stage lysate
pIC50: −log10 of the molar value.
Test readout: pIC50

Entry O=c1[nH]c2ccc(Cl)cc2c(NC2CN3CCC2CC3)c1-c1nc2ccccc2[nH]1 (stereo unspecified) [CHIR-124] — recorded pIC50 = < 4.70

###

- Target or system: UniProt Q8ILG6
- Run description: IC50 for competition of protein binding to Kinobeads
- Condition parameters: assay detail: Kinobeads competition in P. falciparum blood-stage lysate
Test readout: IC50

Entry O=c1[nH]c2ccc(Cl)cc2c(NC2CN3CCC2CC3)c1-c1nc2ccccc2[nH]1 (stereo unspecified) [CHIR-124] — recorded IC50 = > 20 µM

###

- Target or system: UniProt Q8I2X4
- Run description: IC50 for competition of protein binding to Kinobeads
- Condition parameters: assay detail: Kinobeads competition in P. falciparum blood-stage lysate
pIC50: −log10 of the molar value.
Test readout: pIC50

Entry O=c1[nH]c2ccc(Cl)cc2c(NC2CN3CCC2CC3)c1-c1nc2ccccc2[nH]1 (stereo unspecified) — recorded pIC50 = < 4.70

###

- Target or system: UniProt O77310
- Sequence (O77310 whole entry): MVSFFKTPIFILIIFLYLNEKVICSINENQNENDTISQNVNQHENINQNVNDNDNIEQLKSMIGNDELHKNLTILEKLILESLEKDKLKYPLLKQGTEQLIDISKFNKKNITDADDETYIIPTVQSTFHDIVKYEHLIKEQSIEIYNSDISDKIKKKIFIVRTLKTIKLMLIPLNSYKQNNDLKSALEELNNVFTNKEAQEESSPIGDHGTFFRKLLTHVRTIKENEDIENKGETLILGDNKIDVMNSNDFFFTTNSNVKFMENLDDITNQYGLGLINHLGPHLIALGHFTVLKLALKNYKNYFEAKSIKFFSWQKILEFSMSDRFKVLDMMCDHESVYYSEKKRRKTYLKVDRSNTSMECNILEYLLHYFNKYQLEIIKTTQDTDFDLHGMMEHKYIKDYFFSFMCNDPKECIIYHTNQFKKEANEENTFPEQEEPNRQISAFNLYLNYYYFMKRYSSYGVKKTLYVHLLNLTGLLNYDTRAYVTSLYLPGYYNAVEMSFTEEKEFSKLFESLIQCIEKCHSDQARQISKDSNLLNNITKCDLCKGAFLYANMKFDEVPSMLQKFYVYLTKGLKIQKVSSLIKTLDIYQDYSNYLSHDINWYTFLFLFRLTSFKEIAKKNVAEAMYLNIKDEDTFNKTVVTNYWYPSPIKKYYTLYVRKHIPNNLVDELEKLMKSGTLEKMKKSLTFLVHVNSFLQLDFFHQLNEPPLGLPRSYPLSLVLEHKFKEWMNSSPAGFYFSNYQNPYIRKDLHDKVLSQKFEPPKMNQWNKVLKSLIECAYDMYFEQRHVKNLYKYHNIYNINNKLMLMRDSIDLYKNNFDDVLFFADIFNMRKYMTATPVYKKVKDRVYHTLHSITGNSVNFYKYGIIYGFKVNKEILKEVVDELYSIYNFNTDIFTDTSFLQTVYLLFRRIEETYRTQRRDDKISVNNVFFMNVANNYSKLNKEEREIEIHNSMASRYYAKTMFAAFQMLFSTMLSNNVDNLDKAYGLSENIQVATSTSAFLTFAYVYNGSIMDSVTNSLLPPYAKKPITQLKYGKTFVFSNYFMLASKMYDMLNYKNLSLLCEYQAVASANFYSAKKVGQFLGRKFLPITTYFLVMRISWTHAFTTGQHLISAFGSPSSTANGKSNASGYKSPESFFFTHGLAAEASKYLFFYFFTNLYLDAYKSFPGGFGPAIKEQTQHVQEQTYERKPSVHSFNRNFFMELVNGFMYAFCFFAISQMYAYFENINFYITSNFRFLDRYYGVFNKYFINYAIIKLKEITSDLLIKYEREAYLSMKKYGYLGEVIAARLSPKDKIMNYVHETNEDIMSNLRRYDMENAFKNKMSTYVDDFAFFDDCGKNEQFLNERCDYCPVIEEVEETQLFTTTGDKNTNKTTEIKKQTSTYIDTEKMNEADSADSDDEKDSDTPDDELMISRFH
- Run description: IC50 for competition of protein binding to Kinobeads
- Condition parameters: assay detail: Kinobeads competition in P. falciparum blood-stage lysate
Test readout: IC50

Entry O=c1[nH]c2ccc(Cl)cc2c(NC2CN3CCC2CC3)c1-c1nc2ccccc2[nH]1 (stereo unspecified) [CHIR-124] — recorded IC50 = > 20 µM

###

- Target or system: UniProt Q8IHT4
- Run description: IC50 for competition of protein binding to Kinobeads
- Condition parameters: assay detail: Kinobeads competition in P. falciparum blood-stage lysate
Test readout: IC50

Entry O=c1[nH]c2ccc(Cl)cc2c(NC2CN3CCC2CC3)c1-c1nc2ccccc2[nH]1 (stereo unspecified) — recorded IC50 = > 20 µM

###

- Target or system: UniProt Q8IIJ8
- Run description: IC50 for competition of protein binding to Kinobeads
- Condition parameters: assay detail: Kinobeads competition in P. falciparum blood-stage lysate
Test readout: IC50

Entry O=c1[nH]c2ccc(Cl)cc2c(NC2CN3CCC2CC3)c1-c1nc2ccccc2[nH]1 (stereo unspecified) [CHIR-124] — recorded IC50 = > 20 µM

###

- Target or system: UniProt Q8IE81
- Run description: IC50 for competition of protein binding to Kinobeads
- Condition parameters: assay detail: Kinobeads competition in P. falciparum blood-stage lysate
Test readout: IC50

// IC50 (UniProt Q8IE81) for O=c1[nH]c2ccc(Cl)cc2c(NC2CN3CCC2CC3)c1-c1nc2ccccc2[nH]1 (stereo unspecified) = > 20 µM

###

- Target or system: UniProt Q8IJA0
- Run description: IC50 for competition of protein binding to Kinobeads
- Condition parameters: assay detail: Kinobeads competition in P. falciparum blood-stage lysate
pIC50: −log10 of the molar value.
Test readout: pIC50

Entry O=c1[nH]c2ccc(Cl)cc2c(NC2CN3CCC2CC3)c1-c1nc2ccccc2[nH]1 (stereo unspecified) [CHIR-124] — recorded pIC50 = < 4.70

###

- Target or system: UniProt Q8I3V8
- Run description: IC50 for competition of protein binding to Kinobeads
- Condition parameters: assay detail: Kinobeads competition in P. falciparum blood-stage lysate
Test readout: IC50

Entry O=c1[nH]c2ccc(Cl)cc2c(NC2CN3CCC2CC3)c1-c1nc2ccccc2[nH]1 (stereo unspecified) [CHIR-124] — recorded IC50 = > 20 µM

###

- Target or system: UniProt Q8IL19
- Run description: IC50 for competition of protein binding to Kinobeads
- Condition parameters: assay detail: Kinobeads competition in P. falciparum blood-stage lysate
Test readout: IC50

Entry O=c1[nH]c2ccc(Cl)cc2c(NC2CN3CCC2CC3)c1-c1nc2ccccc2[nH]1 (stereo unspecified) — recorded IC50 = > 20 µM

###

- Target or system: UniProt Q8IM55
- Run description: IC50 for competition of protein binding to Kinobeads
- Condition parameters: assay detail: Kinobeads competition in P. falciparum blood-stage lysate
pIC50: −log10 of the molar value.
Test readout: pIC50

Entry O=c1[nH]c2ccc(Cl)cc2c(NC2CN3CCC2CC3)c1-c1nc2ccccc2[nH]1 (stereo unspecified) — recorded pIC50 = < 4.70

###

- Target or system: UniProt Q8IKS3
- Run description: IC50 for competition of protein binding to Kinobeads
- Condition parameters: assay detail: Kinobeads competition in P. falciparum blood-stage lysate
Test readout: IC50

Entry O=c1[nH]c2ccc(Cl)cc2c(NC2CN3CCC2CC3)c1-c1nc2ccccc2[nH]1 (stereo unspecified) — recorded IC50 = > 20 µM

###

- Target or system: UniProt Q8ILL5
- Run description: IC50 for competition of protein binding to Kinobeads
- Condition parameters: assay detail: Kinobeads competition in P. falciparum blood-stage lysate
Test readout: IC50

// IC50 (UniProt Q8ILL5) for O=c1[nH]c2ccc(Cl)cc2c(NC2CN3CCC2CC3)c1-c1nc2ccccc2[nH]1 (stereo unspecified) [CHIR-124] = > 20 µM

###

- Target or system: UniProt C0H4A6
- Run description: IC50 for competition of protein binding to Kinobeads
- Condition parameters: assay detail: Kinobeads competition in P. falciparum blood-stage lysate
Test readout: IC50

Entry O=c1[nH]c2ccc(Cl)cc2c(NC2CN3CCC2CC3)c1-c1nc2ccccc2[nH]1 (stereo unspecified) — recorded IC50 = > 20 µM

###

- Target or system: UniProt Q8IJR8
- Run description: IC50 for competition of protein binding to Kinobeads
- Condition parameters: assay detail: Kinobeads competition in P. falciparum blood-stage lysate
Test readout: IC50 (nM)
Answer in nM, number only, no unit symbol.

Entry O=c1[nH]c2ccc(Cl)cc2c(NC2CN3CCC2CC3)c1-c1nc2ccccc2[nH]1 (stereo unspecified) [CHIR-124] — recorded IC50 = 649

###

- Target or system: UniProt C0H5J2
- Run description: IC50 for competition of protein binding to Kinobeads
- Condition parameters: assay detail: Kinobeads competition in P. falciparum blood-stage lysate
Test readout: IC50

Entry O=c1[nH]c2ccc(Cl)cc2c(NC2CN3CCC2CC3)c1-c1nc2ccccc2[nH]1 (stereo unspecified) — recorded IC50 = > 20 µM

###

- Target or system: UniProt C0H4V4
- Run description: IC50 for competition of protein binding to Kinobeads
- Condition parameters: assay detail: Kinobeads competition in P. falciparum blood-stage lysate
pIC50: −log10 of the molar value.
Test readout: pIC50

// pIC50 (UniProt C0H4V4) for O=c1[nH]c2ccc(Cl)cc2c(NC2CN3CCC2CC3)c1-c1nc2ccccc2[nH]1 (stereo unspecified) = < 4.70

###

- Target or system: UniProt Q8IE22
- Run description: IC50 for competition of protein binding to Kinobeads
- Condition parameters: assay detail: Kinobeads competition in P. falciparum blood-stage lysate
Test readout: IC50

Entry O=c1[nH]c2ccc(Cl)cc2c(NC2CN3CCC2CC3)c1-c1nc2ccccc2[nH]1 (stereo unspecified) [CHIR-124] — recorded IC50 = > 20 µM

###

- Target or system: UniProt Q8I3Y9
- Run description: IC50 for competition of protein binding to Kinobeads
- Condition parameters: assay detail: Kinobeads competition in P. falciparum blood-stage lysate
Test readout: IC50

Entry O=c1[nH]c2ccc(Cl)cc2c(NC2CN3CCC2CC3)c1-c1nc2ccccc2[nH]1 (stereo unspecified) — recorded IC50 = > 20 µM

###

- Target or system: UniProt Q8I3Q6
- Run description: IC50 for competition of protein binding to Kinobeads
- Condition parameters: assay detail: Kinobeads competition in P. falciparum blood-stage lysate
pIC50: −log10 of the molar value.
Test readout: pIC50

Entry O=c1[nH]c2ccc(Cl)cc2c(NC2CN3CCC2CC3)c1-c1nc2ccccc2[nH]1 (stereo unspecified) [CHIR-124] — recorded pIC50 = < 4.70

###

- Target or system: UniProt O97225
- Run description: IC50 for competition of protein binding to Kinobeads
- Condition parameters: assay detail: Kinobeads competition in P. falciparum blood-stage lysate
pIC50: −log10 of the molar value.
Test readout: pIC50

// pIC50 (UniProt O97225) for O=c1[nH]c2ccc(Cl)cc2c(NC2CN3CCC2CC3)c1-c1nc2ccccc2[nH]1 (stereo unspecified) = < 4.70
